Tested on: barnyardgrass (Echinochloa crus-galli)
test name: Test A postemergence
Assay type: in vivo
test settings: Echinochloa crus-galli, post-emergence, 240 h, 125 g ai/ha, postemergence; visual injury on 0 to 100 scale (0 no effect, 100 complete control), approx. 10 d; read-out: Barnyardgrass plant response rating
measure: pest or weed control at 125 g/ha (%)
State just the number; it will be interpreted in %.

Please review the following examples before continuing.
CN1C[C@H](c2cccc(C(F)(F)F)c2)[C@@H](C(=O)Nc2cnccc2C(F)(F)F)C1=O | 70
Cc1cc([C@H]2CN(C)C(=O)[C@@H]2C(=O)Nc2ccc(F)cc2F)ccc1Br | 60
CN1C[C@H](c2ccc(F)c(F)c2)[C@@H](C(=S)Nc2ccccc2F)C1=O (racemic) | 90
C=C(C)c1cccc([C@H]2CN(C)C(=O)[C@@H]2C(=O)Nc2cccc(F)c2F)c1 | 90
O=C1NC[C@H](c2ccc3c(c2)CCC3)[C@H]1C(=O)Nc1cccc(F)c1F | 90
O=C1NC[C@H](c2ccc(F)c(OC(F)(F)C(F)F)c2)[C@H]1C(=O)Nc1cccc(F)c1F | 70

Okay, next one:
// pest or weed control at 125 g/ha value for O=C1NC[C@H](c2ccc3c(c2)OCO3)[C@H]1C(=O)Nc1cccc(F)c1C(F)(F)F : 0
